These entries and their values trace back to a melting point compilation (Tetko et al.; mined from patent text by program, amines drawn as free bases though some values may be those of a salt).

Measured melting point of individual entries
observable: melting point

>>> recorded_value("Cc1cc(C(=O)NC2=NCCC2(c2ccccc2)c2ccccc2)[nH]n1")
"213 to 215 °C"
>>> recorded_value("COc1cc2c(cc1C)CCN=C2C1(C2C=CCCC2)CCC1 (stereo unspecified)")
"70 to 73 °C"
>>> recorded_value("CCC1(C)CCC(N)=CC1=O (stereo unspecified)")
"99 to 100 °C"
>>> recorded_value("CCOC(=O)C1(NC(C)=O)CC2c3cc(C)ccc3Oc3ccccc3N2C1=O (stereo unspecified)")
"104 to 108 °C"
>>> recorded_value("O=C(CCC(=O)N1CCC[C@H]1C(=O)O)c1ccc(Cl)cc1")
"137 to 138 °C"
>>> recorded_value("Nc1cccc(Oc2ccc(C(c3ccc(Oc4cccc(N)c4)cc3)(C(F)(F)F)C(F)(F)F)cc2)c1")
"137 to 139 °C"

====

observable: melting point

>>> recorded_value("O=C1C2=C(c3ccccc3)N(c3ccccc3)C(=O)C2=C(c2ccccc2)N1c1ccccc1")
"> 300 °C"
>>> recorded_value("NCCCCCNc1cccc2c1C(=O)c1c(NCCCCCN)cccc1C2=O")
"115 to 116 °C"
>>> recorded_value("NC(C(=O)O)c1ccc(C=CC2CC2)[nH]1 (centres undefined)")
"275 °C"
>>> recorded_value("OC(c1cccnc1)c1cc(F)ccc1F (centres undefined)")
"79 to 80 °C"
>>> recorded_value("O=C1CC2(CCN(Cc3ccccc3)CC2)C(=O)N1OCc1ccccc1")
"146 to 152 °C"
>>> recorded_value("Cc1ncccc1C(C#N)N1CCN(C(=O)CC(NC(=O)c2cccc(OCc3ccc4ccccc4n3)c2)c2ccccc2)CC1 (centres undefined)")
"101 to 104 °C"
>>> recorded_value("CC(=O)NCCc1cn(S(=O)(=O)c2ccc(C)cc2)c2ccc(OCCN3CCCCC3)cc12")
"65 to 66 °C"
>>> recorded_value("COCOCc1ccc(C2Cn3cc(C(=O)NCc4ccc(Cl)cc4)c(=O)c4cc(CN5CCOCC5)cc(c43)O2)cc1 (centres undefined)")
"236 to 239 °C"
>>> recorded_value("O=C(O)c1ccc2cc(OCCCCCCc3cccc(O)c3O)ccc2c1")
"167 to 171 °C"

====

observable: melting point

>>> recorded_value("CCC(=O)NNC(=O)c1ccncc1")
"131 °C"
>>> recorded_value("COc1cc(C(=O)N(C(C)C)C2CCCCC2)ccc1Cn1c(C)nc2ncccc21")
"201 to 203 °C"
>>> recorded_value("CCc1cccc(C)c1CNc1cc(C(=O)O)cc2c1nc(COC)n2C")
"275 to 278 °C"
>>> recorded_value("Cc1cccc2nc(C)n(C3CCC(=O)NC3=O)c(=O)c12 (centres undefined)")
"292 to 294 °C"
>>> recorded_value("N#Cc1cc(NC(=O)c2csc3c2CCCC3)ccc1N1CCC(O)CC1")
"172 to 173 °C"
>>> recorded_value("O=C(NC(=NCCCCc1cccnc1)NCCCc1c[nH]cn1)c1ccccc1")
"119 to 120 °C"
>>> recorded_value("Cn1ncnc1COc1nn2c(-c3ccccc3F)nncc2c1C(C)(C)C")
"128 °C"
>>> recorded_value("COc1ccc(CCN(C)CCc2ccc(NC(=O)c3cccc4c(=O)c5ccccc5[nH]c34)cc2)cc1OC")
"180 °C"
>>> recorded_value("O=C(Nc1cnc2c(c1)nc1n2CCC1O)c1cc2cc(F)ccc2n1Cc1cccc(F)c1 (centres undefined)")
"288 to 290 °C"

====

Measured melting point of individual entries
observable: melting point (°C)

>>> recorded_value("CN1C(=O)CN=C(c2ccccc2F)c2cc(NC(=O)N3CCSC3)ccc21")
185
>>> recorded_value("COc1ccc(C)cc1C(CCO)c1ccccc1 (stereo not given)")
64
>>> recorded_value("O=C(NCCN1CCC(C(=O)c2ccc(F)cc2)CC1)c1cccnc1")
118
>>> recorded_value("CCC(C)(C)NCC(O)c1ccc(N)c(C#N)c1 (stereo not given)")
143

====

Measured melting point of individual entries
observable: melting point

>>> recorded_value("CCOC(=O)c1nc(-c2ccc(F)cc2)c(CCCl)s1")
"81.5 to 82.5 °C"
>>> recorded_value("CCCCOC(=O)N[C@H](C(=O)NCCc1ccc(OCC#Cc2ccc(Cl)cc2)c(OC)c1)C(C)C")
"141 to 142 °C"
>>> recorded_value("NC(=O)c1ccc(-c2cc3cc(C4=NNC(=O)CC4)ccc3[nH]2)cc1")
"> 300 °C"
>>> recorded_value("CCOC(=O)C1CCN(C(=O)CN2CCN(c3ccncc3)CC2)CC1")
"102 to 104 °C"
>>> recorded_value("CSc1cc(C)nc(SC)c1NC(=O)CN1CCN(CCO)CC1")
"119 to 120 °C"
>>> recorded_value("CC(C)(C)OCCCC1(O)c2ccccc2COc2ccccc21 (stereo not given)")
"113 to 115 °C"
>>> recorded_value("CCOC(=O)CCCCCOc1cc2ccc(-c3ccc(C(=O)O)cc3)cc2cc1C12CC3CC(CC(C3)C1)C2")
"270 to 271 °C"
>>> recorded_value("CC(CCNC(=O)C(C#N)=Cc1ccc(O)c(O)c1)NC(=O)C(C#N)=Cc1ccc(O)c(O)c1 (stereo not given)")
"281 °C"
>>> recorded_value("CCOc1ccc(C=C(CSC(C)=O)C(=O)NCCC(=O)OCc2ccccc2)cc1")
"92 °C"
>>> recorded_value("CC1(C)CC(=O)c2c(C3CC3)sc(C#N)c2C1")
"80 to 83 °C"
>>> recorded_value("O=c1[nH]c(=O)n(Cc2cccc(OCc3csc(-c4ccccc4)n3)c2)o1")
"139 to 140 °C"
>>> recorded_value("COc1ccc(S(=O)(=O)N2CCn3c(c(C(N)=O)c(Cl)c3-c3ccccc3)C2)cc1")
"194 to 195 °C"
>>> recorded_value("C=CC(=O)OCCCCC[C@H]1CC[C@H](c2cccc(F)c2F)CC1")
"29.6 to 30.7 °C"
>>> recorded_value("O=C(O)C1CCCC2c3ccccc3CC12 (stereo not given)")
"138 to 139 °C"
>>> recorded_value("COc1cc(Nc2nc3cccc(-c4ccc(CNC(C)=O)cc4)c3o2)cc(OC)c1OC")
"237 to 239 °C"
>>> recorded_value("COc1nc(C)c(N)cc1C")
"39.8 to 41 °C"
>>> recorded_value("COC(=O)c1ccc(S(=O)(=O)n2c(=O)[nH]c3cc(Cl)ccc3c2=O)cc1")
"> 230 °C"
>>> recorded_value("CCCCS(=O)(=O)c1ccc(C(=O)Nc2ccc3cc(CN4CCCC4)cnc3c2C)cc1")
"210 °C"
>>> recorded_value("COc1cc(-c2nc(N)sc2SCC2CCCCC2)c(OC)cc1C")
"111 to 112 °C"
>>> recorded_value("CCC(=O)Nc1c(N)cc(Br)cc1OCc1ccccc1")
"198 to 201 °C"
>>> recorded_value("CCCc1ccccc1OS(=O)(=O)c1ccc(N2CCN(C)C2=O)cc1")
"103 to 105 °C"
>>> recorded_value("CC(O)c1cc2c(Cl)cc(F)c(-n3c(=O)cc(C(F)(F)F)n(C)c3=O)c2o1 (stereo not given)")
"154 to 157 °C"
>>> recorded_value("CCCCCS(=O)(=O)NC(=O)/C=C/c1c(C)cc(C)n1Cc1ccc(Cl)cc1Cl")
"170 to 171 °C"
>>> recorded_value("Cc1ncn(-c2cc(C)c3[nH]c(=O)ccc3c2)c1[N+](=O)[O-]")
"306 to 309 °C"
>>> recorded_value("CCOC(=O)c1cnc2nc(SCc3ccccc3)nn2c1C")
"98 to 99 °C"
>>> recorded_value("O=C(O)c1ccc(OCCc2c(CCNS(=O)(=O)Cc3ccccc3Cl)n(C(c3ccccc3)c3ccccc3)c3ccc(Cl)cc23)cc1F")
"132 to 135 °C"
>>> recorded_value("CCCCc1ccc(CN(CCCCCCC(=O)O)S(C)(=O)=O)cc1")
"137 °C"
>>> recorded_value("CNc1ccc(C(=O)OC)c(S(=O)(=O)NC(C)(C)C)c1")
"120 to 124 °C"
>>> recorded_value("OCCc1nccn1CCCCc1ccc(OCc2coc(/C=C/c3ccc(F)cc3F)n2)cc1")
"93 to 95 °C"
>>> recorded_value("N=C(N)NCCCOc1ccc2c(c1)CC(CCC(=O)O)C(=O)N2 (stereo not given)")
"168 to 172 °C"
>>> recorded_value("CC(=O)CN1CCc2c(c(=O)oc3cc(C)ccc23)C1")
"128 to 129 °C"
>>> recorded_value("O=C(OCCl)n1c(-c2cscn2)nc2ccccc21")
"143 to 144 °C"
>>> recorded_value("CCCC1=C(C(=O)OCC)C(c2cccc(F)c2F)c2c[nH]nc2N1 (stereo not given)")
"207 °C"
>>> recorded_value("Cc1ccc(-c2ccccc2C(=O)O)cc1C(=O)NCC1CCCCCC1")
"188 to 189 °C"
>>> recorded_value("COc1cccc(OC)c1C(=O)NC(=O)Nc1ccc(-c2ccc(Cl)cc2)cn1")
"205 to 215 °C"
>>> recorded_value("Cc1nc(N2CCN(C)CC2)nc(N)c1-c1cc(Cl)cc(Cl)c1")
"164 to 166 °C"
>>> recorded_value("CCC(C(=O)N(C)C)n1cc(C)c(-c2cccs2)n1 (stereo not given)")
"83 to 85 °C"
>>> recorded_value("CC12CC3OC3CC1CCC1C2CCC2(C)C(O)C(N3CCC(O)CC3)CC12 (stereo not given)")
"204 to 206 °C"
>>> recorded_value("COC(=O)c1ccc(Cl)cc1NC(=O)CSc1ccc(C)cc1")
"91 to 93 °C"
>>> recorded_value("COc1ccc(-c2ccccn2)c(NC(=O)CC(C)NC(=O)OC(C)(C)C)c1 (stereo not given)")
"143 to 145 °C"
